Recorded solubility at 24 h, one value per entry.
test: Compound solubility determination (gross and equilibrium solubility; FaSSIF, FeSSIF, pH 7.4 PBS, pH 1.0 0.1N HCl, pH 4.5 sodium citrate); format: physicochemical; settings: 0.1N HCl solution, simulated gastric fluid, thermodynamic from solid; pH 1 (HCl); read-out: Solubility at pH 1 (HCl)

The examples below pair each entry with its known result.
Ask | So what does the record say about solubility at 24 h for `Cc1[nH]c(C)c(-c2cnc(-c3ccc(OC(F)(F)F)cc3)nc2)c(=O)c1Cl` ?
Reply | 1 to 5 µg/mL

Ask | So what does the record say about solubility at 24 h for `Cc1[nH]c(C)c(-c2ccc(-c3ccc4c(c3)OCO4)nc2)c(=O)c1Br` ?
Reply | ≥ 50 µg/mL

Ask | So what does the record say about solubility at 24 h for `Cc1[nH]c(C)c(-c2ccc(-c3ccc(C(F)(F)F)cc3)nc2)c(=O)c1Br` ?
Reply | 10 to 50 µg/mL

Ask | So what does the record say about solubility at 24 h for `Cc1[nH]c(C)c(-c2ccc(CCc3cccc(C(F)(F)F)c3)nc2)c(=O)c1Cl` ?
Reply | ≥ 50 µg/mL

Ask | So what does the record say about solubility at 24 h for `Cc1[nH]c(C)c(-c2ccc(-c3ccccc3Cl)nc2)c(=O)c1Br` ?
Reply | ≥ 50 µg/mL

Ask | So what does the record say about solubility at 24 h for `Cc1[nH]c(C)c(-c2ccc(CCc3ccc(C(F)(F)F)cc3)nc2)c(=O)c1Cl` ?
Reply | ≥ 50 µg/mL

Ask | So what does the record say about solubility at 24 h for `Cc1[nH]c(C)c(-c2ccc(-c3ccccc3F)nc2)c(=O)c1Cl` ?
Reply | ≥ 50 µg/mL

Ask | So what does the record say about solubility at 24 h for `Cc1[nH]c(C)c(-c2ccc(-c3cc(C(F)(F)F)ccc3Cl)nc2)c(=O)c1Cl` ?
Reply | ≥ 50 µg/mL

New cases:
Ask | So what does the record say about solubility at 24 h for `Cc1[nH]c(C)c(-c2ccc(Oc3ccc(OC(F)(F)F)cc3)cc2)c(=O)c1Cl` ?
Reply | < 1 µg/mL

Ask | So what does the record say about solubility at 24 h for `Cc1[nH]c(C)c(-c2ccc(-c3ccc(F)cc3)nc2)c(=O)c1Cl` ?
Reply | ≥ 50 µg/mL

Ask | So what does the record say about solubility at 24 h for `CCCCc1ccc(-c2ccc(-c3c(C)[nH]c(C)c(Br)c3=O)cn2)cc1` ?
Reply | 10 to 50 µg/mL

Ask | So what does the record say about solubility at 24 h for `Cc1[nH]c(C)c(-c2ccc(-c3ccc(C(F)(F)F)cc3C(F)(F)F)nc2)c(=O)c1Br` ?
Reply | 5 to 10 µg/mL

Ask | So what does the record say about solubility at 24 h for `Cc1[nH]c(C)c(-c2ccc(-c3ccccc3C(F)(F)F)nc2)c(=O)c1Br` ?
Reply | ≥ 50 µg/mL

Ask | So what does the record say about solubility at 24 h for `Cc1[nH]c(C)c(-c2ccc(-c3ccccc3F)nc2)c(=O)c1Br` ?
Reply | ≥ 50 µg/mL

Ask | So what does the record say about solubility at 24 h for `Cc1[nH]c(C)c(-c2ccc(-c3ccc(Cl)cc3)nc2)c(=O)c1Br` ?
Reply | 10 to 50 µg/mL

Ask | So what does the record say about solubility at 24 h for `Cc1[nH]c(C)c(-c2ccc(-c3cc(C(F)(F)F)ccc3F)nc2)c(=O)c1Cl` ?
Reply | ≥ 50 µg/mL
